Target: SMARCA2 (Homo sapiens, UniProt P51531)
Sequence (P51531 whole entry): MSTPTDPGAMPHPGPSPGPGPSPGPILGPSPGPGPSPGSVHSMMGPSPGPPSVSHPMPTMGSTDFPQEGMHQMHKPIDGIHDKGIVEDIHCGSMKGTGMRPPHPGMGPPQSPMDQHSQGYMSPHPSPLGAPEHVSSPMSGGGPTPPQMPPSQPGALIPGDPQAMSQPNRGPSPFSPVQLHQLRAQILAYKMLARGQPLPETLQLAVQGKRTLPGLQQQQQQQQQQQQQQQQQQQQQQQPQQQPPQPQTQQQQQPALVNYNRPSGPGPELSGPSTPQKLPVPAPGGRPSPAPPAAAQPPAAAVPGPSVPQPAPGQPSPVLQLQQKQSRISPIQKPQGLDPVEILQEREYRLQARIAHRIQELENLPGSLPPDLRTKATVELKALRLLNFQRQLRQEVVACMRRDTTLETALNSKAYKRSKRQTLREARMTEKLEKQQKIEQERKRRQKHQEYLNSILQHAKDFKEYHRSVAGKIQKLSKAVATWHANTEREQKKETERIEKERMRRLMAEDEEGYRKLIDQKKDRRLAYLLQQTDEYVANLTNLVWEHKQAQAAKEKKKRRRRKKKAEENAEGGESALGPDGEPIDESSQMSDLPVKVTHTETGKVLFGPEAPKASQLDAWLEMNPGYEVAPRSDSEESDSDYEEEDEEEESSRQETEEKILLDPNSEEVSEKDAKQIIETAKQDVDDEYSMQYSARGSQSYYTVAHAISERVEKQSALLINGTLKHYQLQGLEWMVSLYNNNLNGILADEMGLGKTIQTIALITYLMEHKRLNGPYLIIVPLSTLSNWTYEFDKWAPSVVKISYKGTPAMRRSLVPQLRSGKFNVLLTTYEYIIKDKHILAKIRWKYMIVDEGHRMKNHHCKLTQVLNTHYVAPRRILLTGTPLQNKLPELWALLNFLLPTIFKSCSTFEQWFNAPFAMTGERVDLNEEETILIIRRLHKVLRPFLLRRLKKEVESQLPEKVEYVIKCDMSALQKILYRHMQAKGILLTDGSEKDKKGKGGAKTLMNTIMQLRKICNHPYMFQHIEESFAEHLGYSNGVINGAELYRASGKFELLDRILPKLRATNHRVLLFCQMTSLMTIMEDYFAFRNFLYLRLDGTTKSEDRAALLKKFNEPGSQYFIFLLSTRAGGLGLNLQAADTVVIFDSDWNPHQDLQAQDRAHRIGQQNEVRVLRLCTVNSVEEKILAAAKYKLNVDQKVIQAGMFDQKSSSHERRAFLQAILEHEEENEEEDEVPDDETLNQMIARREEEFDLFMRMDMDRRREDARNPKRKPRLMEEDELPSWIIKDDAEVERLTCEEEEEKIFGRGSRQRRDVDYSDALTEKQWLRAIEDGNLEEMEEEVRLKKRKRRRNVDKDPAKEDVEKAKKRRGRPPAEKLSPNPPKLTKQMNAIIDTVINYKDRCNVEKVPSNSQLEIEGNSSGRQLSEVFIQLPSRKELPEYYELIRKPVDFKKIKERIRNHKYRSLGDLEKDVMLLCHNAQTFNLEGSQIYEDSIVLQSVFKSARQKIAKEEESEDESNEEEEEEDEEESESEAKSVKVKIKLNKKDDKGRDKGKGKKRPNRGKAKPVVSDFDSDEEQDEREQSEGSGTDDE
Experiment: HiBiT assay for protein degradation, Hela SMARCA2-HiBiT cells (A series)
Assay type: cell-based
Parameters: Hela cells were genetically modified via CRISPR/Cas9 to fuse HiBiT to the carboxy terminus of SMARCA2; host or cells: HeLa (CRISPR/Cas9 HiBiT knock-in)
Conditions: Hela SMARCA2-HiBiT cells, 24 hours treatment; read-out: SMARC A2 Hela HiBit DC50
endpoint: DC50

smilesText	readoutValue
Cc1ncsc1-c1ccc([C@H](C)NC(=O)[C@@H]2C[C@@H](O)CN2C(=O)[C@@H](n2cc(CN3CCC(c4ccc5c(c4)C4(CCCCC4)c4nc(=O)c6c(Br)cccc6n4-5)CC3)nn2)C(C)(C)C)cc1	< 100 nM
Cc1ncsc1-c1ccc([C@H](CN2CCC(F)(F)CC2)NC(=O)[C@@H]2C[C@@H](O)CN2C(=O)[C@@H](n2cc([C@H]3CC[C@H](CN4CCC(c5ccc6c(c5)-n5c(nc(=O)c7c(Cl)cccc75)C6(C)C)CC4)CC3)nn2)C(C)(C)C)cc1	< 10 nM
Cc1ncsc1-c1ccc([C@H](CN2CCC(C(F)(F)F)CC2)NC(=O)[C@@H]2C[C@@H](O)CN2C(=O)[C@@H](n2cc([C@H]3CC[C@H](CN4CCC(c5ccc6c(c5)-n5c(nc(=O)c7c(Cl)cccc75)C65CCCCC5)CC4)CC3)nn2)C(C)(C)C)cc1	< 10 nM
Cc1ncsc1-c1ccc([C@H](CCCCCN2CCC(c3ccc4c(c3)C3(CCCCC3)c3nc(=O)c5c(Cl)cccc5n3-4)CC2)NC(=O)[C@@H]2C[C@@H](O)CN2C(=O)[C@@H](NC(=O)C2(F)CC2)C(C)(C)C)cc1	< 100 nM

###

Target: SMARCA4 (Homo sapiens)
Sequence (P51532 whole entry): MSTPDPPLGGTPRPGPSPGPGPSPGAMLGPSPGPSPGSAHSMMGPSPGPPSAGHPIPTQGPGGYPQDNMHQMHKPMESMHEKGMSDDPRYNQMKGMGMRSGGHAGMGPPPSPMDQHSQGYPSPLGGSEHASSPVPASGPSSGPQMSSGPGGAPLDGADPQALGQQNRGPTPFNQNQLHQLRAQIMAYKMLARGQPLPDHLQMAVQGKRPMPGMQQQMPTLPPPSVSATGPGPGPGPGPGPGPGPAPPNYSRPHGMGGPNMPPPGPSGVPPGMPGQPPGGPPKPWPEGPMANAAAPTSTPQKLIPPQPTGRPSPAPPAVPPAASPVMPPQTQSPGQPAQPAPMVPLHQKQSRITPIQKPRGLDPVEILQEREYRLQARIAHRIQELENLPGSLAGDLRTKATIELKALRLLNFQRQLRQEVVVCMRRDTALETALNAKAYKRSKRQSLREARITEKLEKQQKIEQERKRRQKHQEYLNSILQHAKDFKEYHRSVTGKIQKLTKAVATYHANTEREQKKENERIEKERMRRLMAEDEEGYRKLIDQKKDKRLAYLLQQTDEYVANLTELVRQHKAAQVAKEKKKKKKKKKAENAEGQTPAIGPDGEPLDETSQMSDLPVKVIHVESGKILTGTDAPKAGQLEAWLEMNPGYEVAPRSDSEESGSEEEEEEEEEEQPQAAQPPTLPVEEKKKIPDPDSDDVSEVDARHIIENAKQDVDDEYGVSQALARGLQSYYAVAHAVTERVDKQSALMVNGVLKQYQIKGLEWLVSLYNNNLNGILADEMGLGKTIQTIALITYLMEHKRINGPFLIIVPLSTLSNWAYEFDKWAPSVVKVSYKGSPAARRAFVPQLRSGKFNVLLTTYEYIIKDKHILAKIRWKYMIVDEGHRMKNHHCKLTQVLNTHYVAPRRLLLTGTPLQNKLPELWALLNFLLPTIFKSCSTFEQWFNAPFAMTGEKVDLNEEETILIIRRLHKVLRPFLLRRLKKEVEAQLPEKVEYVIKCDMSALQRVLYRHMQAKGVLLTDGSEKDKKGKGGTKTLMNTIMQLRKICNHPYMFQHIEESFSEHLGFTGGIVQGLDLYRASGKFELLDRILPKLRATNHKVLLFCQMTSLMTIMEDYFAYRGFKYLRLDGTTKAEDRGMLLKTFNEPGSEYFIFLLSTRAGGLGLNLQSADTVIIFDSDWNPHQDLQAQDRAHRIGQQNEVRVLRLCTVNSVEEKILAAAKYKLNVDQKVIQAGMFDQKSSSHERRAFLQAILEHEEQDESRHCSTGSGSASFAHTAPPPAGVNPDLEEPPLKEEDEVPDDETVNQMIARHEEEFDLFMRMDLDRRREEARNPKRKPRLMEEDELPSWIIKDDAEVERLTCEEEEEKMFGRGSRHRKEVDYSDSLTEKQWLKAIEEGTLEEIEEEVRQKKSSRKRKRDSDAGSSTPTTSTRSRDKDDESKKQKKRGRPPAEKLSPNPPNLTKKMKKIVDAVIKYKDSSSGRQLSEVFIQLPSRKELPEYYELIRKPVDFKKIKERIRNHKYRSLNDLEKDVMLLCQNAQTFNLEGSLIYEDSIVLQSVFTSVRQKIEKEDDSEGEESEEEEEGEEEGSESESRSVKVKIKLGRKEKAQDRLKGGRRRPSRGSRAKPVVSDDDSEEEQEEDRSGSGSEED
Test: HiBit assay in engineered HT1080 CRISPR knock-in cell, 6 hrs (B series), SMARCA4
Format: cell-based
Details: HT-1080, HT1080 CRISPR knock-in cells, 6 hrs incubation; read-out: SMARC A4 HT1080 HiBit Dmax(%)

smilesText	Dmax
Cc1nc(C)c(-c2ccc([C@H](C)NC(=O)[C@@H]3C[C@@H](O)CN3C(=O)[C@@H](n3cc([C@H]4CC[C@H](CN5CCN(c6ccc7c(c6)-n6c(nc(=O)c8c(Cl)cccc86)C76CCCCC6)CC5)CC4)nn3)C(C)(C)C)cc2)s1	70 to 90%
Cc1ncsc1-c1ccc2c(NC(=O)[C@@H]3C[C@@H](O)CN3C(=O)[C@@H](n3cc([C@H]4CC[C@H](CN5CCC(c6ccc7c(c6)-n6c(nc(=O)c8c(Cl)cccc86)C7(C)C)CC5)CC4)nn3)C(C)(C)C)nccc2c1	< 50%

###

Biological target: SMARCA4 (Homo sapiens)
Test: HiBiT assay for protein degradation, Hela SMARCA4-HiBiT cells (A series)
Format: cell-based
Set-up: fuse HiBiT to the carboxy terminus of SMARCA2 (Promega CS302365) or SMARCA4 (Promega CS3023225); host or cells: HeLa (CRISPR/Cas9 HiBiT knock-in)
Details: Hela SMARCA4-HiBiT cells, 24 hours treatment

molecule	SMARC A4 Hela HiBit DC50(nM)
Cc1ncsc1-c1ccc([C@H](CN2CCOCC2)NC(=O)[C@@H]2C[C@@H](O)CN2C(=O)[C@H](C2CCCCC2)n2cc([C@H]3CC[C@H](CN4CCC(c5ccc6c(c5)-n5c(nc(=O)c7c(Cl)cccc75)C65CCCCC5)CC4)CC3)nn2)cc1 [Compound A122]	No fit
Cc1ncsc1-c1ccc([C@H](C)NC(=O)[C@@H]2C[C@@H](O)CN2C(=O)[C@@H](NC(=O)[C@H]2CC[C@H](CN3CCC(c4ccc5c(c4)C4(CCCCC4)c4nc(=O)c6c(Cl)cccc6n4-5)CC3)CC2)C(C)(C)C)cc1 [Compound A11]	No fit
